molecular target: HCV polymerase (NS5B) type 1b (Hepatitis C virus genotype 1b); construct: a region encoding NS5B (J Virol 1991 March, 65(3), 1105-13, 544 amino acids after deletion of 47 amino acids on the C-terminal); 6xHis (C); made in house; host or cells: Escherichia coli; assay: Assay of enzyme (HCV polymerase) inhibitory activity, type 1b enzyme; assay type: biochemical, HCV BK strain (type 1b); conditions: HCV polymerase inhibitory activity IC50, 1b, type 1b enzyme
Sequence (P26663 2420-2963): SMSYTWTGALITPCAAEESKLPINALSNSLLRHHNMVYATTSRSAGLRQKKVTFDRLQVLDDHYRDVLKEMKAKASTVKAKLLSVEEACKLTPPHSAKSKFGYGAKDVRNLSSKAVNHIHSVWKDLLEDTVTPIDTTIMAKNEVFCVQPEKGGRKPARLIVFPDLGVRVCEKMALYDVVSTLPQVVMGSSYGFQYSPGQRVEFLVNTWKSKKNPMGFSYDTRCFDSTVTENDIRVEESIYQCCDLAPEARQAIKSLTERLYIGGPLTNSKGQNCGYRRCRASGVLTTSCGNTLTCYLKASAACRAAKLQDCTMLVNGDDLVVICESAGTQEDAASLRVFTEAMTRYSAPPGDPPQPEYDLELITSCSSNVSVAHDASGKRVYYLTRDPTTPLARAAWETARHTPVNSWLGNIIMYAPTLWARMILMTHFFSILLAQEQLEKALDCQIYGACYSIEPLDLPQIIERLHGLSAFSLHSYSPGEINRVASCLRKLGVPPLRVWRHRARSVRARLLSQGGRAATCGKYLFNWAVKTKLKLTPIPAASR
pIC50: −log10 of the molar value.
experimental readout: pIC50

Previously resolved entries follow.
CCCc1ccc(CNC(=O)[C@H]2CN(c3cnc4cncc(C(=O)O)c4n3)CCN2S(=O)(=O)c2ccc(C(C)(C)C)cc2)cc1 = > 7.00
CCCc1ccc(CNC(=O)[C@H]2CN(c3nc(C)c(C(=O)C(=O)OCC)s3)CCN2S(=O)(=O)c2ccc(OC(F)(F)F)cc2)cc1 = > 7.00

*Q* Fill blank: measured pIC50 of the molecule O=C(NCc1ccc(OC(F)(F)F)cc1)[C@H]1CN(c2nc3ccncc3s2)CCN1S(=O)(=O)c1ccc(OC(F)(F)F)cc1 is ____.
*A* > 7.00
